Provenance of the data: patent US20210347873A1

# experimental_system: T1, human BLyS (full length, arginine to histidine at position 132) on CHO-K1 cells (human, UniProt Q9Y275 1-285)
# T1 construct: also called hBLyS; CHO-K1 hBLyS
# T1 sequence (Q9Y275 whole entry R130H): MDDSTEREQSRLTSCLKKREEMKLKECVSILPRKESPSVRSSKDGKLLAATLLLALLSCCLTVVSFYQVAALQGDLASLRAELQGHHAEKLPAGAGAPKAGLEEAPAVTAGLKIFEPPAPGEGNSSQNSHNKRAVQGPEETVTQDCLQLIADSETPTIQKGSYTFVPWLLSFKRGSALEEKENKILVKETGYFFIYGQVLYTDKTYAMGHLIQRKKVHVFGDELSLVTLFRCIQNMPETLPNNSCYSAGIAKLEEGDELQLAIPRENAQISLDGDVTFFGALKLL
# assay_comment: flow cytometry, CHO-K1 hBLyS cells, antibody 13.3 nM
parameter_measured: MFI (MFI)
Expressed in MFI, but write only the number.

>>> experimental_value("35E6F7C3 (antibody, V domains shown, Mouse hybridoma monoclonal antibody purified on Protein G) VH: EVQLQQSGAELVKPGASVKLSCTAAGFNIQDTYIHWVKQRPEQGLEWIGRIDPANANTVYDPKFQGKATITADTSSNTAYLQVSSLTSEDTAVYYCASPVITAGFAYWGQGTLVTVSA VL: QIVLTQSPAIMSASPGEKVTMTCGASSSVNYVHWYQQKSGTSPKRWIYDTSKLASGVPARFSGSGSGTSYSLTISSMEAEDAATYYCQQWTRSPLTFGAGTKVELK")
528

Lookup result for 8E7D9C7F5 (antibody, V domains shown, Mouse hybridoma monoclonal antibody purified on Protein G) VH: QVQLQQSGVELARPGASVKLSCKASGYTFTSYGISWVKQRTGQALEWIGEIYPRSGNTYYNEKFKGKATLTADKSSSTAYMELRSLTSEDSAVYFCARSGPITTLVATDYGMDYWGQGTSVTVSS VL: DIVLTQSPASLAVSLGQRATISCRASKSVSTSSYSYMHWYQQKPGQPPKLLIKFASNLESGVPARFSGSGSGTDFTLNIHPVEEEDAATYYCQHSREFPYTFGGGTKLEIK ; measured MFI: 570

Note to self: MFI recorded for 67A2E1D10 (antibody, V domains shown, Mouse hybridoma monoclonal antibody purified on Protein G) VH: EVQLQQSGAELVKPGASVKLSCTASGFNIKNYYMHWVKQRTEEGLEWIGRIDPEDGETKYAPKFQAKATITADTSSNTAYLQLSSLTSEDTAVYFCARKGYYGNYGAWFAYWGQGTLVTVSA VL: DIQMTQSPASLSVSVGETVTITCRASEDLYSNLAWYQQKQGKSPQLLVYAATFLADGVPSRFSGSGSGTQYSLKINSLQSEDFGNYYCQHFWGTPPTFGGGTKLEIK was 371
